# System: BRK
# Construct: gene PTK6
# Recorded conditions: concentration: 1 μM,replicates: in singlicate; n = 1;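 further: KINOMEscan kinase panel screen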

>  <Compound>
COC(=O)c1cccc(NC(=O)NC2CCN(c3ccnc(Nc4cc(OC)c(OC)c(OC)c4)n3)C2)c1 (centres unmarked)

>  <%Inh [%]>
8

$$$$
>  <Compound>
O=C(Nc1n[nH]c2cc(-c3ccco3)ccc12)C1CC1

>  <%Inh [%]>
0

$$$$
>  <Compound>
CN(c1ccc2c(c1)nc(NCc1ccc(F)cc1)n2C)c1ccnc(Nc2ccc(CS(C)(=O)=O)cc2)n1.Cl

>  <%Inh [%]>
88

$$$$
>  <Compound>
Cc1ccn2nc(-c3ccc(F)cc3)c(-c3ccncc3)c2c1.Cl

>  <%Inh [%]>
0

$$$$
>  <Compound>
CC(=O)c1c(-c2ccncc2)[nH]c(-c2ccncc2)c1C

>  <%Inh [%]>
3

$$$$

---

# Tested on: CDC2L2
# Recorded conditions: concentration: 1 μM,replicates: in singlicate; n = 1
Below, each of the compounds is paired with its reported %Inh value.

>  <Compound>
COc1ccc(Nc2nccc(N3CCC(NC(=O)c4cccc(C#N)c4)C3)n2)cc1 (centres unmarked)

>  <%Inh (%)>
0

$$$$
>  <Compound>
O=C(Nc1cccc(Oc2ccc3nccn3n2)c1)Nc1cccc(C(F)(F)F)c1

>  <%Inh (%)>
6

$$$$
>  <Compound>
O=C(Nc1n[nH]c2cc(-c3ccco3)ccc12)C1CC1

>  <%Inh (%)>
7

$$$$
>  <Compound>
COc1cc(Nc2nccc(N3CCC(NC(=O)c4cccc(C#N)c4)C3)n2)cc(OC)c1OC (centres unmarked)

>  <%Inh (%)>
36

$$$$
>  <Compound>
Cc1nnc(-c2ccc3occ(-c4ccc(S(C)=O)cc4)c3n2)o1 (centres unmarked)

>  <%Inh (%)>
0

$$$$

---

# Test system: PCTK3
# Construct: gene CDK18
# Recorded conditions: concentration: 1 μM,replicates: in singlicate; n = 1
Below, each of the molecules is paired with its reported %Inh value.

>  <Molecule>
Cc1ccc(C(=O)Nc2ccc(Oc3ccc4nc(NC(=O)C5CC5)cn4c3)c(F)c2)c(=O)n1-c1ccccc1

>  <%Inh>
0%

$$$$
>  <Molecule>
Cn1ccc2ncnc(Oc3ccc(NC(=O)Nc4cccc(C(F)(F)F)c4)c(Cl)c3)c21

>  <%Inh>
8%

$$$$
>  <Molecule>
Nc1nccc(-c2ccc3c(N)n[nH]c3c2)n1 [GSK1034945]

>  <%Inh>
10%

$$$$
>  <Molecule>
CC(C)c1nc(-c2cccc(NS(=O)(=O)c3ccccc3)c2)c(-c2ccnc(Nc3ccc4c(c3)CN(C)CC4)n2)s1 [GSK1649598]

>  <%Inh>
100%

$$$$
>  <Molecule>
CS(=O)c1ccc(-c2coc3ccc(-c4n[nH]c(=O)o4)cc23)cc1 (centres unmarked)

>  <%Inh>
0%

$$$$
>  <Molecule>
O=C(Nc1ccc(Oc2ccc3nc(NC(=O)C4CC4)cn3n2)c(F)c1)c1cccn(-c2ccccc2)c1=O

>  <%Inh>
5%

$$$$
>  <Molecule>
CCNCC(Cc1ccccc1)NC(=O)c1cc(Br)c(-c2ccnc3[nH]ccc23)s1.Cl.Cl (centres unmarked) [GSK1383280]

>  <%Inh>
0%

$$$$
>  <Molecule>
CCn1c(-c2nonc2N)nc2cncc(Br)c21 [SB-738004]

>  <%Inh>
6%

$$$$

---

# Test system: ASK2
# Construct: gene MAP3K6
# Recorded conditions: concentration: 1 μM,replicates: in singlicate; n = 1

>  <Compound>
COc1cc(Nc2nccc(N3CCC(NC(=O)c4cccc(C#N)c4)C3)n2)cc(OC)c1OC (stereo not drawn)

>  <%Inh [%]>
0

$$$$
>  <Compound>
NC(=O)c1ccc(-c2cc3ncnc(SCC(=O)O)c3s2)cc1

>  <%Inh [%]>
0

$$$$
>  <Compound>
O=C(NCC1CC1)c1ccc(-c2cc(C(=O)NC3CC3)ccc2F)cc1

>  <%Inh [%]>
0

$$$$
>  <Compound>
O=C(Nc1cccc(Oc2ccc3nccn3n2)c1)Nc1cccc(C(F)(F)F)c1

>  <%Inh [%]>
4

$$$$
>  <Compound>
COC(=O)c1cccc(NC(=O)NC2CCN(c3ccnc(Nc4cc(OC)c(OC)c(OC)c4)n3)C2)c1 (stereo not drawn)

>  <%Inh [%]>
0

$$$$
>  <Compound>
Cn1ccc2ncnc(Oc3ccc(NC(=O)Nc4cncc(C(F)(F)F)c4)c(Cl)c3)c21

>  <%Inh [%]>
0

$$$$
>  <Compound>
COc1cccc(CNC(=O)NC2CCN(c3ccnc(Nc4cc(OC)c(OC)c(OC)c4)n3)C2)c1 (stereo not drawn)

>  <%Inh [%]>
0

$$$$
>  <Compound>
O=C1NCCc2[nH]c(-c3ccncc3)cc21

>  <%Inh [%]>
0

$$$$
>  <Compound>
C[C@@H](Oc1cc(-n2cnc3cc(-c4ccncc4)ccc32)sc1C(N)=O)c1ccccc1Cl

>  <%Inh [%]>
8

$$$$
>  <Compound>
COc1cc2nccc(Nc3ccc(Oc4ccccc4)cc3)c2cc1OC.Cl

>  <%Inh [%]>
0

$$$$
>  <Compound>
CC(C)S(=O)(=O)N1CCN(Cc2ccc3c(c2)nc(NC(=O)c2ccsc2)n3C[C@H](O)c2ccccc2)CC1

>  <%Inh [%]>
0

$$$$
>  <Compound>
C[C@@H](Oc1cc(-n2cnc3ccc(-c4ccncc4)cc32)sc1C(N)=O)c1ccccc1Cl

>  <%Inh [%]>
0

$$$$
>  <Compound>
O=C(Nc1n[nH]c2cc(-c3ccco3)ccc12)C1CC1

>  <%Inh [%]>
4

$$$$
>  <Compound>
COc1ccc(Nc2nccc(N3CCC(NC(=O)c4cccc(C#N)c4)C3)n2)cc1 (stereo not drawn)

>  <%Inh [%]>
0

$$$$
>  <Compound>
CS(=O)(=O)Nc1ccc(-c2ccnc3[nH]ccc23)cc1

>  <%Inh [%]>
21

$$$$
>  <Compound>
Cl.c1ccc(Oc2ccc(Nc3ccnc4cc(-c5ccc(CN6CCNCC6)o5)ccc34)cc2)nc1

>  <%Inh [%]>
0

$$$$
>  <Compound>
Cc1nnc(-c2ccc3occ(-c4ccc(S(C)=O)cc4)c3n2)o1 (stereo not drawn)

>  <%Inh [%]>
0

$$$$
>  <Compound>
Cl.Nc1n[nH]c2cc(-c3ccccn3)ccc12

>  <%Inh [%]>
0

$$$$

---

# Tested on: PIP5K2B
# Recorded conditions: concentration: 1 μM,replicates: in singlicate; n = 1
Lab note: anything with %Inh at or over 20% counts as Condition met; the rest go in Condition not met.

>  <Compound>
OCCn1cc(-c2cnc3nnn(Cc4ccc5ncccc5c4)c3n2)cn1

>  <Measured target>
PIP5K2B

>  <Classification>
Condition not met

$$$$
>  <Compound>
O=C(Nc1ccc(Oc2ccc3nc(NC(=O)C4CC4)cn3n2)c(F)c1)c1cccn(-c2ccccc2)c1=O

>  <Measured target>
PIP5K2B

>  <Classification>
Condition met

$$$$
>  <Compound>
O=c1[nH]cc(-c2ccc(O)cc2)c2sc(-c3ccncc3)cc12

>  <Measured target>
PIP5K2B

>  <Classification>
Condition not met

$$$$
>  <Compound>
CS(=O)(=O)Nc1ccc(-c2ccnc3[nH]ccc23)cc1

>  <Measured target>
PIP5K2B

>  <Classification>
Condition met

$$$$
>  <Compound>
CN1CCN(CCNc2nc3cc(Oc4ccc(NC(=O)Nc5cc(C(F)(F)F)ccc5F)cc4)ccc3[nH]2)CC1.Cl.Cl

>  <Measured target>
PIP5K2B

>  <Classification>
Condition not met

$$$$
>  <Compound>
CS(=O)(=O)c1cccc(CNc2nc(Nc3ccc4c(c3)[C@@H]3C[C@@H]4CNC3=O)ncc2C(F)(F)F)c1

>  <Measured target>
PIP5K2B

>  <Classification>
Condition met

$$$$
>  <Compound>
COc1ccc(Nc2nccc(N3CCC(NC(=O)c4cccc(C#N)c4)C3)n2)cc1 (stereo not shown)

>  <Measured target>
PIP5K2B

>  <Classification>
Condition not met

$$$$
>  <Compound>
NC(=O)c1ccc(-c2cc3ncnc(SCC(=O)O)c3s2)cc1

>  <Measured target>
PIP5K2B

>  <Classification>
Condition not met

$$$$
>  <Compound>
CC(=O)c1c(-c2ccncc2)[nH]c(-c2ccncc2)c1C

>  <Measured target>
PIP5K2B

>  <Classification>
Condition not met

$$$$
>  <Compound>
COc1cc2nccc(Nc3ccc(Oc4ccccc4)cc3)c2cc1OC.Cl

>  <Measured target>
PIP5K2B

>  <Classification>
Condition met

$$$$

---

# Test system: TRKA
# Construct: gene NTRK1
# Recorded conditions: concentration: 1 μM,replicates: in singlicate; n = 1
Lab note: anything with %Inh at or over 50% counts as Fulfilled; the rest go in Not fulfilled.

>  <Sample smiles>
COc1cc2c(Nc3ccc(NC(=O)c4ccccc4)cc3)ncnc2cc1OCCCN1CCOCC1

>  <Classification>
Fulfilled

$$$$
>  <Sample smiles>
FC(F)(F)c1cc(Br)cc(Nc2nccc(-c3cnn4ncccc34)n2)c1

>  <Classification>
Not fulfilled

$$$$
>  <Sample smiles>
CN(c1cccc(CNc2nc(Nc3ccc4c(c3)CC(=O)N4)ncc2C(F)(F)F)c1)S(C)(=O)=O

>  <Classification>
Fulfilled

$$$$
>  <Sample smiles>
Cl.c1ccc(Oc2ccc(Nc3ccnc4cc(-c5ccc(CN6CCNCC6)o5)ccc34)cc2)nc1

>  <Classification>
Fulfilled

$$$$
>  <Sample smiles>
CN(c1ccc2c(c1)nc(NCc1ccc(F)cc1)n2C)c1ccnc(Nc2ccc(CS(C)(=O)=O)cc2)n1.Cl

>  <Classification>
Not fulfilled

$$$$

Cited source: paper PMC5540273
